# target.or.test.system: T1, human SLITRK6 on cells (human, UniProt Q9H5Y7 27-841)
# T1 construct: whole, on cells
# test.description: flow cytometry on RT4 cells
readout.label: pEC50
Quick note: pEC50 values are minus log10 of concentrations in mol/L.

Request: State the recorded pEC50 for this entry: phA290 (antibody, V domains shown, From phage display, then full-length construction; Only the variable regions are tied to the name) VH: QVQLVQSGAEVKKPGASVKVSCKASGYTFTSYYMHWVRQAPGQGLEWMGIINPSGGSTSYAQKFQGRVTMTRDTSTSTVYMELSSLRSEDTAVYYCARGFTRYFDYWGQGTLVTVSA VL: EIVMTQSPGTLSLSPGERATLSCRASQSVSKYLAWYQQRPGQAPRLLIYDASNRATGIPARFSGSGSGTDFTLTVSSLEPEDFAVYYCQQRYNWPLTFGGGTTVEIK
Result: 9.85

Request: State the recorded pEC50 for this entry: phA108 (antibody, V domains shown, From phage display, then full-length construction; Only the variable regions are tied to the name) VH: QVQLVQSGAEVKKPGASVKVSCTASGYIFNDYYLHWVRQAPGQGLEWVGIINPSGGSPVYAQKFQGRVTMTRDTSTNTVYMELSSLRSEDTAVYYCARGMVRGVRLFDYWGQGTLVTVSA VL: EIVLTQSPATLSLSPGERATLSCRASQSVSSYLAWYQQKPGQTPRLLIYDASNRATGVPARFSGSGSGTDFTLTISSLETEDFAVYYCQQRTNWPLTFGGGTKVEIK
Result: 10.00
